Tested on: glycogen synthase kinase-3 (GSK3A per assay name; protocol says GSK3B)
Assay: GSK3 binders on small-molecule microarrays, primary screen, biochemical, small-molecule microarray, 635 nm fluorescence, GSK3A (AID 1103); also: the record names both GSK3A and GSK3B
Conditions: small-molecule microarray binding, fluorescence 635 nm; higher = more signal
Here, each record is paired with measured composite z-score data.
Response field accepts a number only; no unit should be typed.

{"molecule": "C=CCN1C(=O)[C@@]2(O[C@@H](CCO)[C@H]([Si](C)(C)c3ccc(OC)cc3)[C@H]2C)c2cc(N3CCOC3=O)ccc21", "composite z-score": 0.612}
{"molecule": "O=C1O[C@H](c2ccccc2)[C@H](c2ccccc2)N2[C@H]1[C@@H](C(=O)N1CCCCCCC1)[C@]1(C(=O)Nc3ccc(C#CC4(O)CCCCCC4)cc31)[C@H]2c1ccc(O)cc1", "composite z-score": 1.34}
{"molecule": "COCCOC(=O)N1C(=O)[C@@]2(c3cc(C#CCCO)ccc31)[C@H](c1ccccc1OCCO)N1[C@H](c3ccccc3)[C@H](c3ccccc3)OC(=O)[C@H]1[C@@H]2C(=O)N1CCCCCCC1", "composite z-score": 1.08}
{"molecule": "COc1ccc(C#Cc2ccc3c(c2)[C@]2(C(=O)N3)[C@H](C(=O)N3CCCCCCC3)[C@H]3C(=O)O[C@H](c4ccccc4)[C@H](c4ccccc4)N3[C@@H]2c2ccc(O)cc2)cc1", "composite z-score": 1.16}
{"molecule": "COCCOC(=O)N1C(=O)[C@@]2(c3ccccc31)[C@H](c1ccccc1OCCO)N1[C@H](c3ccccc3)[C@H](c3ccccc3)OC(=O)[C@H]1[C@@H]2C(=O)N1CCCCCCC1", "composite z-score": 1.37}

Shifting focus to the molecule that follows.
Ask: Could you tell me which composite z-score is on file for `C=CCNC(=O)[C@@H]1[C@H]2C(=O)O[C@H](c3ccccc3)[C@H](c3ccccc3)N2[C@H](c2ccc(O)cc2)[C@@]12C(=O)N(C(=O)OCCOC)c1ccc(C#CCCO)cc12` ?
Result: 1.04

====

The entries below are paired with their reported z-score.
Experiment: basal RPMI8226 viability, no added stimulus, profiling panel, cell-based, calcein-AM fluorescence, 48 h, PK04 Diversity Set (AID 1166);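 also: cells grown under basal conditions without added stimulus; test concentration not given here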
Conditions: RPMI8226 myeloma viability, higher = more signal
Reply briefly: the number, and no unit.

Here's what some known entries look like.
{"structure string": "O=C1O[C@H](c2ccccc2)[C@H](c2ccccc2)N2[C@H]1[C@@H](C(=O)N1CCCCCCC1)[C@]1(C(=O)Nc3ccc(C#CC4(O)CCCCCC4)cc31)[C@H]2c1ccccc1OCCO", "z-score": -0.908}
{"structure string": "O=C1N(CCS(=O)(=O)c2ccccc2)Cc2ccccc2[C@@H]2OC(c3ccc(OCCCO)cc3)=N[C@]12CCS(=O)(=O)c1ccccc1", "z-score": -1}

Ask: Recorded z-score for `C[C@]1(C(=O)NCC(F)(F)F)c2ccccc2C(=O)N(Cc2ccccc2)[C@H]1c1ccc(CO)cc1` , please?
Result: 0.514

====

Assay: E. coli growth modulation, two-sided OD650, primary screen, E. coli filamentation project, strain DRC41, 24 h (AID 1093);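 also: MC1000 strain lacking acrAB efflux and sulA so SOS filamentation is blocked; test concentration not given here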
Details: OD650, 24 h, higher = more signal, called active from +8 up or from −8 down
Active and inactive are the calls of the source.
readout type: z-score

These recorded examples may help you get a feel for the data.
{"compound": "CN1C(=O)C2C(C1=O)C1C=C(CCCO)C2C(C2CC2)N1Cc1cc2c(cc1Br)OCO2 (stereo unspecified)", "reported": "0.307 (inactive)"}
{"compound": "C=C(COC)C(=O)CC[C@H](OC(=O)c1cccnc1)c1ccc(CO)o1", "reported": "-0.252 (inactive)"}

Ask: // lookup z-score for `CCCC=C(CCC)[C@@H](NS(=O)(=O)c1cccc2cccnc12)c1ccc(-c2ccccc2)cc1`
Result: -0.701 (inactive)

Ask: Name the recorded z-score for `CN(C)CCCCNC(=O)[C@H]1C[C@H]2C(=O)N[C@@H](CCCC[N+](C)(C)C)C(=O)N2[C@H]1c1ccc(O)cc1` .
Result: 0.744 (inactive)

Ask: Quick one: z-score for `C[C@]1(C(=O)O)c2ccccc2C(=O)N(Cc2ccc(OC(F)(F)F)cc2)[C@H]1c1ccc(CO)cc1` ?
Result: 0.402 (inactive)

Ask: Give its z-score value. Item: `COCC1=C2[C@@H](CCc3ccccc3)OB(O)C[C@@H]2[C@@H]2C(=O)N(C)C(=O)[C@@H]2C1`
Result: -0.817 (inactive)

Ask: # get_value(readout='z-score', item= `[N-]=[N+]=Nc1ccccc1C[C@]1(C(=O)O)N=C(c2ccc(OCCCO)cc2)O[C@H]1c1ccccc1` )
Result: 0.464 (inactive)

Ask: Name the reported z-score value associated with the compound `C=CC[C@H](OC(=O)Nc1ccc(SC)cc1)c1ccc(OCCO)cc1`
Result: 0.951 (inactive)

Ask: So what does the record say about z-score for CC1CC/C=C\[C@H]2OC34C=CCN(C(C)(C)C)C(=O)[C@H]3N(C(CO)C(C)C)C(=O)[C@@H]4C2C(=O)O1 (stereo partly specified) ?
Result: -0.515 (inactive)

Ask: z-score for `CCOC(=O)C[C@H]1[C@H](OC(=O)c2ccccc2-c2ccccc2)[C@@H](NC(=O)c2ccccc2)c2cc(OCCCO)ccc2N1C(=O)c1ccccc1` ?
Result: -1.11 (inactive)

Ask: Tell me the measured z-score of `C=CCNC(=O)[C@@H]1[C@H]2C(=O)O[C@H](c3ccccc3)[C@H](c3ccccc3)N2[C@H](c2ccc(O)cc2)[C@@]12C(=O)Nc1ccc(C#CCC(C(=O)OC)C(=O)OC)cc12` , please.
Result: -0.311 (inactive)
